Tested on: HER-family receptors
Assay text: CELsignia real-time live cell IC50 titration of pan-HER inhibitors against NRG1b/EGF stimulation, primary breast cancer cells
Assay type: cell-based, human
Protocol conditions: six primary breast cancer cell samples with hyperactive HER- and c-Met signaling; inhibitor 18 h before NRG1b/EGF; Poziotinib three, Tucatinib five samples
pIC50: −log10 of the molar value.
Experimental readout: pIC50

The following compounds have reported results that may help.
C=CC(=O)N1CCC[C@@H](n2nc(-c3ccc(Oc4ccccc4)cc3)c3c(N)ncnc32)C1: 7.88
CCOc1cc2ncc(C#N)c(Nc3ccc(OCc4ccccn4)c(Cl)c3)c2cc1NC(=O)/C=C/CN(C)C: 8.32

1 = COc1cc2ncnc(Nc3ccc(F)c(Cl)c3)c2cc1NC(=O)/C=C/CN1CCCCC1
2 = CNC(=O)CN1CCC(Oc2cc3c(Nc4cccc(Cl)c4F)ncnc3cc2OC)CC1
3 = Cc1cc(Nc2ncnc3ccc(NC4=NC(C)(C)CO4)cc23)ccc1Oc1ccn2ncnc2c1
4 = C=CC(=O)N1CCC(Oc2cc3c(Nc4ccc(Cl)c(Cl)c4F)ncnc3cc2OC)CC1
5 = CS(=O)(=O)CCNCc1ccc(-c2ccc3ncnc(Nc4ccc(OCc5cccc(F)c5)c(Cl)c4)c3c2)o1
Sort low-to-high on pIC50, please. # output: labels, in the requested order
3, 5, 2, 1, 4
(3: 6.48, 5: 6.86, 2: 7.38, 1: 7.66, 4: 8.91)

Origin of measurements: paper PMC8742957
